TARGET ENTITY: DDR1 kinase (Homo sapiens, UniProt Q08345)
Sequence (Q08345 19-913): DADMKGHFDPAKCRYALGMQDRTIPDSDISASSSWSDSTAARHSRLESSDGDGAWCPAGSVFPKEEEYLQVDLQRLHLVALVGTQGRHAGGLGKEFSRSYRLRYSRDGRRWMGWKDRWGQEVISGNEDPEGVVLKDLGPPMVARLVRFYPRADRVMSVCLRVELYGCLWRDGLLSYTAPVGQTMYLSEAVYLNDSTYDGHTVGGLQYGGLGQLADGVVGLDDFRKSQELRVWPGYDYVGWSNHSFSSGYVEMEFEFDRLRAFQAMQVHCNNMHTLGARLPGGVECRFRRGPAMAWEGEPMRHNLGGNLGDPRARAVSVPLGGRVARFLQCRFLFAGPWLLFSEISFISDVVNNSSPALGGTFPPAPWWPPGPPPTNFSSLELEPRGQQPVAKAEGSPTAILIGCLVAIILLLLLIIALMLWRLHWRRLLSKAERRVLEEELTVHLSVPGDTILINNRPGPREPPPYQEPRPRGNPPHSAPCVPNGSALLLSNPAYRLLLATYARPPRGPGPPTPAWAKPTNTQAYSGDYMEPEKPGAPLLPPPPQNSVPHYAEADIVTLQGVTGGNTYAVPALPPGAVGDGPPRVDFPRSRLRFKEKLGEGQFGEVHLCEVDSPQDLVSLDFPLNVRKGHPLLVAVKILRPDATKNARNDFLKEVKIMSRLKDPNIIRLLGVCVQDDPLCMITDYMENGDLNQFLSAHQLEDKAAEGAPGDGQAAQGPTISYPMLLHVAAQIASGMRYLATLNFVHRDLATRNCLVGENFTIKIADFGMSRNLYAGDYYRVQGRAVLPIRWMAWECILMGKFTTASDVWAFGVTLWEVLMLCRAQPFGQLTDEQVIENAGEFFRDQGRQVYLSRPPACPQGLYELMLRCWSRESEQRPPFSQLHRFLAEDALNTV
TEST: Evaluation of DDR1 kinase inhibition in DDR1-expressing U2OS cells (type I collagen stimulation, PathHunter detection)
Assay type: cell-based
Design: host or cells: U2OS
PARTICULARS: type I collagen 50 µg/mL stimulation, duplicate, read-out: DDR-1 IC50
Where a name gives a salt, the structure may show the parent alone.
PARAMETER MEASURED: pIC50
When answering, recall that pIC50 equals minus log10 of the concentration in mol/L, and write that number alone.

Exercise: Determine its reported pIC50: Nc1cc(C(=O)N2CC(c3nn(CC(=O)NC4CC4(F)F)c4ccccc34)C2)c(F)cn1 (stereo not shown) [Compound E-248]
Key: 6.29

Exercise: Determine its reported pIC50: Nc1cc(C(=O)N2CC(c3nn(CC(=O)N4CCO[C@@H](C(F)(F)F)C4)c4cc(F)cc(F)c34)C2)ccn1 [Compound E-73, hydrochloride]
Key: 7.89

Exercise: Determine its reported pIC50: Nc1cc(C(=O)N2CC(c3nn(Cc4cn(Cc5ccccc5)nn4)c4cccc(F)c34)C2)ccn1 [Compound E-35, hydrochloride]
Key: 5.70

Exercise: Determine its reported pIC50: Cc1c(C(=O)N2CC(c3nn(CC(=O)N4CCO[C@@H](C(F)(F)F)C4)c4cc(F)cc(F)c34)C2)ccnc1N [Compound E-51, hydrochloride]
Key: 6.40

Exercise: Determine its reported pIC50: Nc1cc(C(=O)N2CC(c3nn(CC(=O)N4CCC[C@H]4C(F)(F)F)c4cccc(F)c34)C2)ccn1 [Compound E-96]
Key: 7.08

Exercise: Determine its reported pIC50: N#C[C@@H]1CCCN1C(=O)Cn1nc(C2CN(C(=O)c3cc(N)ncc3F)C2)c2ccccc21 [Compound E-236]
Key: 6.92

Exercise: Determine its reported pIC50: N#CC1(NC(=O)Cn2nc(C3CN(C(=O)c4cc(N)ncc4F)C3)c3ccccc32)CC1 [Compound E-244]
Key: 6.38

The origin of these recorded values is patent EP4624465A1.
